# measurement target: DtxR (Corynebacterium glutamicum)
# Sequence: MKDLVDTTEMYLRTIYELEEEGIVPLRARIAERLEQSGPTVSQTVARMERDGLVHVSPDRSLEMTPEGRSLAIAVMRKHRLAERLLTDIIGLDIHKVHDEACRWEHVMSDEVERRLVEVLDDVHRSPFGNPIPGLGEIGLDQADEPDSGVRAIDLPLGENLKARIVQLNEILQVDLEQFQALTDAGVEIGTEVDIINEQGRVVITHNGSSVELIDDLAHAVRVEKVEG
# procedure summary: EMSA
# settings: EMSA: 31 nM DNA, DtxR at 0/50/200-fold (A) or 0/300/400-fold (B) excess; 50 mM Tris-HCl pH 7.5, 5 mM MgCl2 (rest of buffer not in material); 30 min, room …
measure name: binding

Worked examples, 5 sequences total:
sequence code	measurement target	experimental result
TTTGACGTGCTTTTTTAGCACGCCATTAAGCTAAAAATAAGGTTAGGGTGCGTTATGTTTTCAGGTATCAAAAGGTGCTAATGCCTTTATTGTGTTTCGCATTGTCATTTACCACATGAAG (double strand) [cepA promoter 121 bp]	DtxR (Corynebacterium glutamicum)	binds
TAGTCGTATCAAAAAGTGCTCTGATCTTAACTTTGCCCTACCTAAATACATGACCCCACCACGACGGCCAGTACTAACGACAGAATCCACTAGCGAACCCATTTATTAACAAACATTGCAA (double strand) [NCgl2776 promoter 121 bp (primers named NCgl2766)]	DtxR (Corynebacterium glutamicum)	binds
AACCTGGGGGTTATATAAAAAACTTCACAAAAAGGTTGCATCCGCATCAACCGAAAGATAGTGTGTGTGAGGCAAGCCTAAGTAAACTTCTTCAAGGTTCGGGCTGGTTCCTTGAAGACGG (double strand) [xerC promoter 121 bp]	DtxR (Corynebacterium glutamicum)	binds
GTGGCGCTTTGCCTGTGTTGCTTAGGCGGCGTTGAAAATGAACTACGAATGAAAAGTTCGGGAATTGTCTAATCCGTACTAAGCTGTCTACACAATGTCTACTTCAGTTACTTCACCAGC (double strand) [metH promoter 121 bp]	DtxR (Corynebacterium glutamicum)	binds
GGACCTAAGCGTGTAAGATGGAAACGTCTGTATCGGATAAGTAGCGAGGAGTGTTCGTTAAAAGTGGCAAACACTGAACACAATTATGACGCTTCATCGATCACCATCCTTGAAGGTCTTG (double strand) [gyrB promoter 121 bp]	DtxR (Corynebacterium glutamicum)	no binding

Continue with the next sequence.
Looking for the measured binding of GAGTAGTAGCAGTGGGTATTTGCAAGCCTTTGACAAGTTACTAAACCGTGCTACCGAAACCCCTCGTGTTTAAATCTAGAAGTTTAAAGGGTGAAAACAGTCCATTACTTAAGCACCAATC (double strand) [NCgl0177 promoter 121 bp] , can you help?
no binding
